This collection of values is drawn from PubChem BioAssay (NCI).

System: M14 melanoma
Assay: NCI-60 one-dose screen, 48 h
Conditions: 10 µM unless noted
The panel holds about 83,000 compounds, 20% with a hit somewhere; the sample as a whole holds those more often. Active and inactive are the calls of the source. How the source made its calls: active means growth percent below 10; inactive means the rest.
A correct response names exactly one class from yes = active, no = inactive

| CHEMICAL_STRING | SUBJECT_OF_TEST | CATEGORY |
| --- | --- | --- |
| COc1cc2nc(SCc3ccccc3)n(-c3ccc(Cl)cc3)c(=O)c2cc1OC | M14 melanoma | no |
| CC(=O)NNc1ccc2nnc(-c3ccccc3)n2n1 | M14 melanoma | no |

API: the following record is the query input.
[ask] Could you kindly confirm the outcome this assay logged for `Cn1cc(-c2cc3nc(-c4cn(C)c5ncccc45)cc(N)n3n2)c2ccccc21` ?
[reply] yes

---

System: U251 CNS
Test: NCI-60 one-dose screen, 48 h (100 = growth as untreated, 0 = no growth, -100 = all killed)
Settings: 10 µM unless noted
About 83,000 compounds went through this panel and 20% of them were active in at least one assay; those are over-represented in the sample as a whole.
Give measured growth for each item. Keep answers brief.
Numbers only, in %.

| MOLECULE | SUBJECT_OF_TEST | UNIT_ABBREVIATION | growth |
| --- | --- | --- | --- |
| COc1ccc(-c2ccc(SCC(=O)Nc3ccc(S(N)(=O)=O)cc3Br)nn2)cc1 | U251 CNS | % | 52.4 |
| O=S(=O)(Nc1cccc(-n2cnc3cc(-c4ccc(O)cc4)ccc32)c1)C1CC1 | U251 CNS | % | 17.6 |
| Nc1cc2ccccc2c(=O)n1NC(=O)c1ccc(I)cc1 | U251 CNS | % | 97.4 |
| COCOc1ccc2c(=O)c(C)c(C(=O)N[C@@H](Cc3ccccc3)C(O)C(=O)NCCc3ccc(OC)cc3)oc2c1 (stereo partly drawn) | U251 CNS | % | 106 |
| COc1ccc(-c2ccc(SCC(=O)NCCc3ccc(S(N)(=O)=O)cc3)nn2)cc1 | U251 CNS | % | 91.1 |
| COc1ccc(N2N=C(c3ccc4c(c3)OCO4)CC2c2cccc(NC(=O)CCCNS(=O)(=O)c3ccc(F)cc3)c2)cc1 (stereo not drawn) | U251 CNS | % | 59.2 |
| Cc1ccc(C(SCCNCc2cc(N(C)C)ccn2)(c2ccccc2)c2ccccc2)cc1 | U251 CNS | % | -89.3 |
| N#Cc1c(-c2ccc(Cl)cc2)nc2n[nH]c(-c3ccc(Cl)cc3)c2c1-c1cccs1 | U251 CNS | % | 58.6 |
| C#CCOc1ccc(/C=N/Nc2nc(-c3ccc(Cl)cc3)cs2)cc1OC | U251 CNS | % | 64.6 |
| CCCCCCn1c(O)c(N=Nc2nc(-c3cc4ccccc4oc3=O)cs2)c2ccccc21 | U251 CNS | % | -57.5 |

For every item in the list below, what is its measured growth?
1. N#Cc1c(-c2ccccc2Cl)cc(-c2ccc3ccccc3c2)[nH]c1=O
2. CC(C)(C)OC(=O)/C=C/c1cccc2c1C(=O)NC(C)(c1cc3cc(Cl)ccc3oc1=O)N2 (stereo not drawn)
3. C#CCOc1cc(N(CC)CC)ccc1C(C(=O)NC(C)(C)C)N(C(=O)C1CCc2cc(F)ccc2O1)c1ccc(F)cc1 (stereo not drawn)
4. COc1cccc(COc2ccc(NC(=O)Nc3ccc(Cl)c(C(F)(F)F)c3)cc2)c1
5. CC12CC[C@@H]3[C@]4(C)COC(c5cn[nH]c5-c5cccc(Cl)c5)O[C@@H]4CC[C@@]3(C)[C@@H]1CC(C1=CCOC1=O)O2 (stereo partly drawn)
6. O=C(COc1ccc(NC(=O)Nc2ccccc2)cc1)N=Nc1c(O)[nH]c2ccc([N+](=O)[O-])cc12
7. N#Cc1c(-c2cccc(Cl)c2Cl)cc(-c2ccc3ccccc3c2)[nH]c1=O

[reply]
-2.47
42.4
37.9
31.8
38.6
-72.8
6.58

[ask] Identify measured growth corresponding to Cc1ccccc1[C@H]1C(C(=O)c2ccc(Cl)cc2)C2(N[C@@H]1c1ccccc1)C(=O)Nc1ccc(Cl)cc12 (stereo partly drawn)
[reply] -82.9

---

Answer each item with its documented growth.
Tested on: TK-10 renal
Assay: NCI-60 one-dose screen, 48 h (100 = growth as untreated, 0 = no growth, -100 = all killed)
Conditions: 10 µM unless noted
About 83,000 compounds went through this panel and 20% of them were active in at least one assay; those are over-represented in the sample as a whole.
Give bare numbers, in %.

Consider the reported growth for these compounds:
| COMPOUND | SUBJECT_OF_TEST | MEASURED_PROPERTY | UNIT_ABBREVIATION | TEST_VALUE |
| --- | --- | --- | --- | --- |
| C[C@H](Nc1nc(NCCc2ccccc2)nc2ccccc12)c1ccccc1 | TK-10 renal | growth | % | -93.6 |
| O=C1NC(=O)c2c1c1c3cc(Br)ccc3[nH]c1c1oc3ccc(F)cc3c21 | TK-10 renal | growth | % | 66.7 |
| O=C(N1c2ccccc2Sc2ccccc21)n1ccc2cccnc21 | TK-10 renal | growth | % | 90.7 |
| COc1ccc(-c2nc3cc(C)ccc3n2CC(=O)N=Nc2c(O)[nH]c3ccc(OC)cc23)cc1 | TK-10 renal | growth | % | -3.46 |

// each listed compound needs a value for growth
1. OCC1(CCCc2ccccc2)CCCN(c2nccc3ccccc23)C1 (stereo not drawn)
2. CN(C)c1nc(NCCNS(=O)(=O)c2ccc(C(=O)/C=C/c3ccc(C(F)(F)F)cc3)cc2)nc(Nc2ccc(F)cc2)n1
3. COc1c(F)ccc(C(=O)Nc2ccc3nc(NC(=O)C4CCCN(S(=O)(=O)C5CC5)C4)sc3c2)c1F (stereo not drawn)
4. C=C1CC[C@@H]2[C@]3(C)COC(c4cn[nH]c4-c4ccc(F)cc4)O[C@@H]3CC[C@@]2(C)[C@@H]1C/C=C1/C(=O)OCC1O (stereo partly drawn)
5. COc1ccc2oc(=O)c(C3(C)NC(=O)c4c(/C=C/C(=O)OC(C)(C)C)cccc4N3)cc2c1 (stereo not drawn)
6. C#C[C@]1(O)CC[C@H]2[C@@H]3CC=C4c5sc(-c6ccc([N+](=O)[O-])cc6)nc5CC[C@]4(C)[C@H]3CC[C@@]21C

[reply]
1. 50.1
2. 26.2
3. 74.5
4. -19.1
5. 56.7
6. 52

---

Test system: A549/ATCC NSCLC
Assay: NCI-60 one-dose screen, 48 h (100 = growth as untreated, 0 = no growth, -100 = all killed)
Conditions: 10 µM unless noted
This is part of a sample that, as a whole, favours compounds with a hit. Of some 83,000 tested, about 20% had one in any assay.
Criterion: growth strictly less than 70%. Met: yes. Not met: no.

Solved cases (3 shown):
| COMPOUND | CATEGORY |
| --- | --- |
| CN(C)c1ccnc(CNCCSC2(c3ccc(C(F)(F)F)cc3)c3ccccc3C=Cc3ccccc32)c1 | yes |
| CC1CN(c2oc(-c3ccc([N+](=O)[O-])cc3)nc2C#N)CC(C)O1 (stereo not drawn) | no |
| Cc1cc(C)n(-c2ccc3nnc(-c4ccccc4)n3n2)n1 | no |

[ask] Item COc1cc(C2CC(c3cc(OC)c(OC)c(OC)c3)=NN2C(C)=O)ccc1OCc1ccccc1 (stereo not drawn) : growth beneath 70%, strictly?
[reply] yes

[ask] Dear colleague, could you confirm whether growth of `Cn1cc(-c2cc3nc(-c4c[nH]c5ccc(Cl)cc45)cc(N)n3n2)c2ccccc21` falls below 70%? Thanks.
[reply] yes

[ask] Determine if `COc1ccc(-c2nnc3ccc(N/N=C/c4ccc(O)cc4)nn23)cc1` shows growth strictly lower than 70%.
[reply] yes

[ask] Is 70% strictly greater than the compound's reported growth? compound: `COc1cc2c3c(n(CCCN4CCC[C@@H]4CO)c(=O)c2cc1OC)-c1cc2c(cc1C3=O)OCO2`
[reply] yes

[ask] Consider the compound `O=C(O)Cn1c(O)c(/C=C2/C=c3cc4c(cc3=NC2=O)OCCO4)sc1=S` . Is its growth strictly less than 70%?
[reply] no

[ask] Strictly below 70% in growth? `Cc1ccc(C(=O)CSc2nc3ccc(F)cc3c(=O)n2-c2ccc(Cl)cc2)cc1`
[reply] yes

[ask] Quick check: growth of `O=C(/C=C/c1ccc(-c2ccccc2)cc1)c1nc2ccccc2n1Cc1ccc(Br)cc1` under 70%?
[reply] yes

[ask] Quick check: does CC1[C@H]2[C@H](C[C@H]3[C@@H]4CC=C5c6sc(Nc7ccccc7F)nc6CC[C@]5(C)[C@H]4CC[C@@]32C)O[C@]12CC[C@@H](C)CO2 (stereo partly drawn) have growth under 70%?
[reply] yes

[ask] Could you please tell me whether growth recorded for `Cc1cccc(-c2nc(Nc3ccc(C)c(S(N)(=O)=O)c3)c3ccccc3n2)c1` is less than 70%?
[reply] yes

[ask] Criterion: growth strictly below 70%. Is it met by `Cn1cc(-c2cc(N)n3nc(-c4c[nH]c5ccccc45)cc3n2)c2cccnc21` ?
[reply] yes

[ask] Determine if Cc1nc(Nc2ncc(C(=O)Nc3c(C)cccc3Cl)s2)cc(N2CCN(CCCNC(=O)COc3ccc(C4CCC(=O)NC4=O)cc3)CC2)n1 (stereo not drawn) shows growth strictly lower than 70%.
[reply] yes

[ask] Consider `Cc1ccc2c(N)c(C(=O)Nc3ccc(OC(F)(F)F)cc3)sc2n1` . Does its growth lie strictly below 70%?
[reply] no

[ask] Please state whether growth is below 70% for CC1(C)CC[C@]2(C(=O)O)CC[C@]3(C)C(=CCC4[C@@]5(C)C[C@@H](O)[C@@H]6OC(c7ccccc7Br)OC[C@@]6(C)C5CC[C@]43C)C2C1 (stereo partly drawn)
[reply] yes

[ask] Dear colleague, could you confirm whether growth of `CC(=O)c1cccc(NC(=O)CCC(=O)NS(=O)(=O)c2ccc(C)cc2)c1` falls below 70%? Thanks.
[reply] no
